Experiment: Metabolic stability in cryopreserved human hepatocytes
Type: in vitro ADME
Settings: human, cryopreserved human hepatocytes (pooled, suspension), Table S2; free ligands, cryopreserved human hepatocytes; read-out: t1/2
VALUE KIND: half-life at 1 µM (h)

>  <MOLECULE>
Oc1c(-c2csc(N3CCOCC3)n2)ccc(F)c1F [Compound 46, reference compound]

>  <VALUE KIND>
half-life at 1 µM

>  <QUANTITATIVE RESULT>
0.305

$$$$

[a] Cc1ncsc1-c1ccc([C@H](C)NC(=O)[C@@H]2C[C@@H](O)CN2C(=O)[C@@H](N)C(C)(C)C)cc1 [Compound 42, reference compound]
[b] Nc1cccc2c1C(=O)N(C1CCC(=O)NC1=O)C2=O (centres unmarked) [Compound 41, pomalidomide, reference compound]
Asked: Returns: the argument ( a or b ) having the larger half-life at 1 µM. Write down the label of the entry you select.
Given back: b
